Give T/C for every item shown.
# System: CD8F1 mice, subcutaneous mammary adenocarcinoma, T/C%
# test: NCI In Vivo Anticancer Drug Screen. Data for tumor model Mammary Adenocarcinoma CD8F1 (subcutaneous) in CD8F1
# measurement.setup: endpoint: median tumor weight change; dose: 50.0 mg/kg/injection; schedule: Q01DX001 (ip); vehicle: saline; higher = larger tumour
Inconclusive results are not listed.

Sample answers from the record:
OC(CCl)CN1CC[N+]2(CC1)CC[N+]1(CCN(CC(O)CCl)CC1)CC2 (centres undefined) | 101 % of control
CC1(C)COCN1COCCOCN1COCC1(C)C | 109 % of control
Cc1c2ccccc2cc2cccc[n+]12 | 59 % of control

Then this compound:
Give CD8F1 mice, subcutaneous mammary adenocarcinoma, T/C% T/C for C(=N/NC1=NCCN1)/c1c2ccccc2c(/C=N\NC2=NCCN2)c2ccccc12
101 % of control

Data origin: PubChem BioAssay AID220
